- TARGET UNDER TEST: HLA-DR DRB1*1501 (DR15) (Homo sapiens, UniProt P01903+P01911)
- PROTOCOL DESCRIPTION: biochemical
- Format: binding
- COND: DRBI *1501
No end group written: not given here.
Assign IC50 to each entry below.

IN: I have this sequence here, PVIKNSIKLRL , and I need its recorded IC50.
OUT: 2580 nM

IN: # get_value(readout='IC50', item= GRAVCGGVLVHPQWV )
OUT: 12900 nM

IN: Form field: reported IC50 of FLRSVFANSLVYGAS
OUT: 13 nM

IN: Need IC50, item KEDSHTAWTIVRVEI
OUT: 1990 nM

IN: Give its IC50 value. Item: HLKRYYGRILHYLKA
OUT: 0.69 nM

IN: # input sequence: QWVLTAAHCLKKNSQ ; wanted: its IC50
OUT: > 45500 nM

IN: # query: IC50 of entry CKFVVQLDIQSTKED [CKFVVQLDIQSTKED]
OUT: 22900 nM

IN: Which IC50 value is on record for RLRIVRGTQLFEDNYAL ?
OUT: 31 nM

IN: I'd like to know its IC50. The sequence in question is GAPLGGAARALAHGV
OUT: 1620 nM

---

- TARGET UNDER TEST: HLA-B*5301 (Homo sapiens, UniProt P01889, A329T/A93T/A95T/C349S/D201E/D98Y/E176V/E187L/E204Q/E69T/G107R/I218V/K202T/L105A/L119I/N104I/Q94N/R106L/R155S/R180L/S101N/S121R/S35A/S48A/T118I/V127L/V306I/V36M/Y140S/Y91F)
- PROTOCOL DESCRIPTION: biochemical
- Format: binding
- COND: B*5301 binding affinity (IC50)
pIC50: −log10 of the molar value. No end group written: not given here.
Label yes for high-side pIC50 (at or above 6) and no for low-side pIC50 (below it).

IN: Hi team, for RPQVPLRPI , is the recorded pIC50 at or above 6?
OUT: no

IN: Say whether LPPLERLTI shows pIC50 of 6 or more.
OUT: no

IN: Decide: pIC50 of APCNFFTSA >= 6?
OUT: no

IN: Record CPTVQASKL ; criterion: pIC50 no lower than 6. Met?
OUT: no

IN: Identify whether the reported pIC50 of the following sequence is 6 or greater: FPGPGPGPL
OUT: no

IN: Has SPGPGPGL a recorded pIC50 greater than or equal to 6?
OUT: no

IN: Quick check, pIC50 >= 6? FPLTFGWCI
OUT: yes

IN: Check this sequence for pIC50 at or above 6: FPLTFGWCFKI
OUT: yes

IN: // inclusive: pIC50 at least 6? input: RPRGPGPGSEF
OUT: no

IN: hey, is pIC50 for this one >= 6? FPVGPGPGL
OUT: yes

IN: For this sequence, is measured pIC50 6 or higher? TPAGPGPGVF
OUT: no

IN: Test whether the sequence LGFVFTLTV records pIC50 of 6 or higher.
OUT: no

---

For each of the molecules below, state its pIC50.
- TARGET UNDER TEST: HLA-DR DRB1*1101 (DR11) (Homo sapiens, UniProt P01903+P01911, A100R/A169T/A87E/I96F/K41T/L162R/M171V/P40S/Q125H/Q178H/Q39Y/Q99D/R42S/S66Y/T262R/V115G/W38E)
- Sequence (P01903 26-254 limits assumed, other chains not shown): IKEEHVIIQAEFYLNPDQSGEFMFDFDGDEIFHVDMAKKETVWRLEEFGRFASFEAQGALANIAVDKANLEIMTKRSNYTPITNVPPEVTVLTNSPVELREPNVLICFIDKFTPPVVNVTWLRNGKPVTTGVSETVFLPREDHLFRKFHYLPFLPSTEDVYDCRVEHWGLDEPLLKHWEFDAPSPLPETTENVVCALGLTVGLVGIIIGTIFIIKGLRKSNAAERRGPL
- PROTOCOL DESCRIPTION: biochemical
- Type: binding
- COND: DRB1 *1101
Please report pIC50 as the negative decimal logarithm of the molar concentration, giving only the number.

IN: For CSCC[C@H](NC(=O)[C@@H]1CCCN1C(=O)[C@@H](N)CC(=O)O)C(=O)N[C@@H](Cc1ccccc1)C(=O)N[C@@H](CCCCN)C(=O)N[C@@H](Cc1ccc(O)cc1)C(=O)N[C@@H](Cc1c[nH]cn1)C(=O)N[C@@H](CC(C)C)C(=O)N[C@H](C(=O)N[C@H](C(=O)N[C@@H](C)C(=O)N[C@@H](CCC(N)=O)C(=O)N[C@H](C(=O)N[C@@H](CCCNC(=N)N)C(=O)NCC(=O)O)C(C)C)C(C)C)[C@@H](C)O , what is its reported pIC50?
OUT: 7.16

IN: # pIC50 lookup, item CC[C@H](C)[C@H](NC(=O)[C@H](CO)NC(=O)[C@H](CC(=O)O)NC(=O)[C@H](CCCNC(=N)N)NC(=O)[C@H](Cc1ccc(O)cc1)NC(=O)[C@@H](NC(=O)[C@@H](NC(=O)[C@H](Cc1ccccc1)NC(=O)[C@@H](N)CC(C)C)C(C)C)C(C)C)C(=O)N1CCC[C@H]1C(=O)N[C@@H](Cc1c[nH]cn1)C(=O)N[C@@H](C)C(=O)N[C@@H](C)C(=O)N[C@@H](CS)C(=O)N[C@@H](Cc1c[nH]cn1)C(=O)O
OUT: 5.80

IN: Fill blank: measured pIC50 of the molecule CSCC[C@H](NC(=O)[C@@H]1CCCN1C(=O)[C@H](CC(=O)O)NC(=O)[C@@H](N)Cc1ccc(O)cc1)C(=O)N[C@@H](Cc1ccccc1)C(=O)N[C@@H](CCCCN)C(=O)N[C@@H](Cc1ccc(O)cc1)C(=O)N[C@@H](Cc1c[nH]cn1)C(=O)N[C@@H](CC(C)C)C(=O)N[C@H](C(=O)N[C@H](C(=O)N[C@@H](C)C(=O)N[C@@H](CCC(N)=O)C(=O)N[C@H](C(=O)N[C@@H](CCCNC(=N)N)C(=O)O)C(C)C)C(C)C)[C@@H](C)O is ____.
OUT: 6.60

IN: pIC50 for CSCC[C@H](NC(=O)[C@H](CC(C)C)NC(=O)[C@H](CC(=O)O)NC(=O)[C@@H](N)Cc1c[nH]cn1)C(=O)N[C@@H](CC(C)C)C(=O)N[C@@H](CC(C)C)C(=O)N[C@@H](CCCNC(=N)N)C(=O)N[C@@H](CC(C)C)C(=O)N[C@@H](CO)C(=O)N[C@@H](CCC(=O)O)C(=O)N1CCC[C@H]1C(=O)N[C@@H](C)C(=O)N[C@@H](CCC(=O)O)C(=O)N[C@@H](CC(C)C)C(=O)N[C@H](C(=O)O)[C@@H](C)O ?
OUT: 5.67

IN: Fill in: pIC50 of CC[C@H](C)[C@H](NC(=O)CNC(=O)[C@H](CC(C)C)NC(=O)[C@H](CC(C)C)NC(=O)[C@H](CCCNC(=N)N)NC(=O)[C@H](CO)NC(=O)[C@@H](NC(=O)[C@H](Cc1ccc(O)cc1)NC(=O)[C@@H]1CCCN1C(=O)[C@H](CO)NC(=O)CNC(=O)[C@@H](NC(=O)CN)C(C)C)C(C)C)C(=O)N[C@@H](CS)C(=O)N[C@@H](CC(C)C)C(=O)O is ___
OUT: 6.16

IN: What measured pIC50 goes with CC[C@H](C)[C@H](N)C(=O)N[C@@H](CCCCN)C(=O)N[C@@H](CCCCN)C(=O)N[C@@H](Cc1ccccc1)C(=O)N[C@@H](CC(C)C)C(=O)N[C@@H](Cc1ccc(O)cc1)C(=O)N[C@@H](CC(N)=O)C(=O)N[C@@H](Cc1ccccc1)C(=O)N[C@H](C(=O)N[C@@H](CCC(N)=O)C(=O)N[C@H](C(=O)N1CCC[C@H]1C(=O)N[C@@H](Cc1c[nH]cn1)C(=O)N[C@@H](CC(C)C)C(=O)N[C@@H](C)C(=O)O)[C@@H](C)CC)[C@@H](C)O ?
OUT: 6.86

IN: Consider the molecule CC(C)C[C@H](NC(=O)CNC(=O)[C@H](CC(N)=O)NC(=O)[C@@H](N)Cc1ccc(O)cc1)C(=O)N[C@@H](CC(C)C)C(=O)N1CCC[C@H]1C(=O)N1CCC[C@H]1C(=O)N[C@@H](Cc1ccc(O)cc1)C(=O)N[C@@H](C)C(=O)N[C@@H](CO)C(=O)N[C@@H](CS)C(=O)N[C@@H](Cc1c[nH]cn1)C(=O)N[C@@H](CC(C)C)C(=O)N[C@H](C(=O)N[C@@H](CCC(=O)O)C(=O)O)[C@@H](C)O and give its measured pIC50.
OUT: 5.28

Value source: patent US20060079453A1
